# Read-out: Lipoprotein lipase (LPL), LPL (gene 4023)
# experiment summary: LTEA_HepaRG_LPL: Life Technologies and Expression Analysis (LTEA) Assay for Lipoprotein lipase (LPL) using HepaRG (AID 2283515)
# condition description: mRNA level, 48 h; actives raise or lower the signal
The source made the active and inactive calls. The calls were made as follows: active = hit-call score of the fitted dose curve at least 0.9, where 1 is the maximum; inactive = score below 0.9.
result type: AC50

The examples below pair each entry with its known result.
Nc1ccc(Cl)cc1N
13.2 µM (active)
COC(=O)Nc1nc2ccccc2[nH]1
inactive
CCCCCCCCCCCCCN1CC(C)OC(C)C1 (configuration not stated)
inactive
c1ccc(N=Nc2ccccc2)cc1
inactive
Cn1cc(-c2ccccc2)c(=O)c(-c2cccc(C(F)(F)F)c2)c1
inactive
CCOc1cccc(C2(N3CCN(c4ccccc4)CC3)CCC(C)CC2)c1 (configuration not stated)
inactive

Okay, now this molecule:
Task item: Find the measured AC50 of Cc1ccc(N)c(N)c1 and report it.
Reply: inactive

###

# experiment summary: CCTE_Shafer_MEA_dev_AB: CCTE's Alamar Blue Assay for Cytotoxicity in the Neural Network Formation Assay, Shafer Lab (AID 2284083);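 also: resazurin reduction fluorescence as viability of cultured neurons; twelve days of exposure from plating with re-dosing on DIV 5 and 9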
Records with an inconclusive call do not appear. Calls of active or inactive are those of the source. Rule for the calls: active = hit-call score of the fitted dose curve at least 0.9, where 1 is the maximum; inconclusive = response in the unintended direction; inactive = score below 0.9.
Result category, one only: label 1 = active, label 0 = inactive

[O-][Cl+]O
label 0
[Cl-].[Cl-].[Hg+2]
label 1
Clc1ccc(C(c2ccc(Cl)cc2)C(Cl)Cl)cc1
label 1
COC(=O)Nc1nc2ccccc2[nH]1
label 1
ClC1=C(Cl)[C@]2(Cl)[C@H]3[C@H]([C@@H]4C=C[C@H]3C4)[C@@]1(Cl)C2(Cl)Cl
label 1

Moving on to another compound below.
Task item: # fetch the recorded call for ClC1=C(Cl)C2(Cl)C3C(Cl)C=CC3C1(Cl)C2(Cl)Cl (stereo unspecified) here
Reply: label 1

###

# Read-out: Thyroid Hormone Responsive (THRSP), THRSP (gene 7069)
# experiment summary: LTEA_HepaRG_THRSP: Life Technologies and Expression Analysis (LTEA) Assay for Thyroid Hormone Responsive (THRSP) using HepaRG (AID 2283536)
# condition description: mRNA level, 48 h; actives raise or lower the signal
Activity calls are given as the source filed them. Rule for the calls: active = hit-call score of the fitted dose curve at least 0.9, where 1 is the maximum; inactive = score below 0.9.
Result category, one only: T (active), F (inactive)

Here's what some known entries look like.
CN(C)c1ccccc1
F
OCCCBr
F

Task item: # fetch the recorded call for CCNS(=O)(=O)C(F)(F)C(F)(F)C(F)(F)C(F)(F)C(F)(F)C(F)(F)C(F)(F)C(F)(F)F here
Reply: T

Task item: # fetch the recorded call for c1ccc(NNc2ccccc2)cc1 here
Reply: F

Task item: # fetch the recorded call for ClC1=C(Cl)[C@]2(Cl)[C@H]3[C@H]([C@@H]4C=C[C@H]3C4)[C@@]1(Cl)C2(Cl)Cl here
Reply: T

Task item: # fetch the recorded call for Nc1ccc(Oc2ccc(N)cc2)cc1 here
Reply: F

Task item: # fetch the recorded call for Oc1ccc2ccc3cccc4ccc1c2c34 here
Reply: F

Task item: # fetch the recorded call for CC(C)(C)C(O)(CCc1ccc(Cl)cc1)Cn1cncn1 (centres undefined) here
Reply: T

Task item: # fetch the recorded call for OCCCl here
Reply: F

Task item: # fetch the recorded call for C1=Cc2cccc3cccc1c23 here
Reply: F

Task item: # fetch the recorded call for Brc1ccc(Oc2ccccc2)cc1 here
Reply: F

Task item: # fetch the recorded call for COc1cc(C=O)cc2c1[C@H](COC(N)=O)[C@]1(OC(C)=O)ON2C[C@H]2[C@@H]1N2C(C)=O here
Reply: F

Task item: # fetch the recorded call for CCOC(=O)[C@]1(c2ccccc2)Oc2ccccc2[C@@H]1N here
Reply: T

Task item: # fetch the recorded call for CC(C)(C)OOC(=O)c1ccccc1 here
Reply: F

Task item: # fetch the recorded call for [Cl-].[Cl-].[Hg+2] here
Reply: T

Task item: # fetch the recorded call for CC(C)(C)OOC(C)(C)CCC(C)(C)OOC(C)(C)C here
Reply: F

###

# target under test: rat Neurokinin-1 Receptor (NK1), Tacr1 (gene 24807) (UniProt P14600)
# Sequence (P14600 whole entry, looked up): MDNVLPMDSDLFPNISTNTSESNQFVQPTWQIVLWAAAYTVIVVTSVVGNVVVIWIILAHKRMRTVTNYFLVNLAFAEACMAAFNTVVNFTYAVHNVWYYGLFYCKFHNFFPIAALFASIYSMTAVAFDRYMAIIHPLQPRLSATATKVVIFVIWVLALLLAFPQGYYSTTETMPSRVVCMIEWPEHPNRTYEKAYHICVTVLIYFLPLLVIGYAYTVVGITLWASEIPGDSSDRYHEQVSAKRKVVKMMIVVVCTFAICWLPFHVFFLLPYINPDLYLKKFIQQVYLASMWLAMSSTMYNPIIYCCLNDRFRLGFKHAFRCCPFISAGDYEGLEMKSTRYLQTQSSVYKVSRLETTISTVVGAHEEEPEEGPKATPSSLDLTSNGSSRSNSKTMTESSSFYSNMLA
# experiment summary: NVS_GPCR_rNK1: NovaScreen (NVS) G Protein-Coupled Receptor Assay for rat Neurokinin-1 Receptor (NK1) (AID 2283309)
Results filed as inconclusive are left out. Active and inactive are the calls of the source. How the source made its calls: active means hit-call score of the fitted dose curve at least 0.9, where 1 is the maximum; inconclusive means response in the unintended direction; inactive means score below 0.9.
Result category, one only: Y (active), N (inactive)

Here's what some known entries look like.
C[C@]12C=CC3=C4CCC(=O)C=C4CC[C@H]3[C@@H]1CC[C@@H]2O
Y
O=C(N[C@H](c1ccccc1)[C@@H]1CN2CCC1CC2)c1c(Cl)ccc(C(F)(F)F)c1Cl
Y
Clc1ccc(C(c2ccc(Cl)cc2)C(Cl)(Cl)Cl)cc1
N

Task item: # fetch the recorded call for CC(C)(C)C(O)(CCc1ccc(Cl)cc1)Cn1cncn1 (stereo not given) here
Reply: Y

Task item: # fetch the recorded call for [Cl-].[Cl-].[Hg+2] here
Reply: Y

###

# experiment summary: ATG_FoxO_CIS: Attagene CIS-FACTORIAL HepG2 Assay for human Forkhead box O (FoxO) (AID 2282943)
# condition description: HepG2 Attagene cis-reporter, FoxO element, mRNA; actives raise or lower the signal
The source made the active and inactive calls. Rule for the calls: active = hit-call score of the fitted dose curve at least 0.9, where 1 is the maximum; inactive = score below 0.9.
Result category, one only: 1.0 for active, 0.0 for inactive

OCCCl
0.0
CCC(C)c1ccc(O)cc1 (configuration not stated)
0.0
CC(C)COC(=O)c1ccccc1C(=O)OCC(C)C
0.0

Task item: # fetch the recorded call for Clc1ccc(Cl)c(Cl)c1 here
Reply: 0.0

Task item: # fetch the recorded call for Nc1ccc(Cl)cc1N here
Reply: 0.0

Task item: # fetch the recorded call for CCCCC(CC)COC(=O)c1ccc(C(=O)OCC(CC)CCCC)c(C(=O)OCC(CC)CCCC)c1 (configuration not stated) here
Reply: 0.0

Task item: # fetch the recorded call for CNC(=O)Oc1cccc2c1OC(C)(C)C2 here
Reply: 0.0

Task item: # fetch the recorded call for ClCCOCCCl here
Reply: 0.0

Task item: # fetch the recorded call for CN(C)c1ccccc1 here
Reply: 0.0

Task item: # fetch the recorded call for O=C(N[C@H](c1ccccc1)[C@@H]1CN2CCC1CC2)c1c(Cl)ccc(C(F)(F)F)c1Cl here
Reply: 0.0

Task item: # fetch the recorded call for O=C1CCCO1 here
Reply: 0.0

Task item: # fetch the recorded call for CCC[CH2][Sn]([Cl])([CH2]CCC)[CH2]CCC here
Reply: 0.0

Task item: # fetch the recorded call for OCCCBr here
Reply: 0.0

Task item: # fetch the recorded call for ClC1=C(Cl)[C@]2(Cl)[C@H]3[C@H]([C@@H]4C=C[C@H]3C4)[C@@]1(Cl)C2(Cl)Cl here
Reply: 0.0

Task item: # fetch the recorded call for c1ccc(C2CO2)cc1 (configuration not stated) here
Reply: 0.0

###

# Read-out: Plasminogen activator inhibitor-1 (PAI1), SERPINE1 (gene 5054)
# experiment summary: BSK_BE3C_PAI1: BioMAP Diversity Plus: BE3C Assay for Plasminogen activator inhibitor-1 (PAI1) Biomarker Activity (AID 2283037)
# condition description: primary human bronchial epithelial cells; actives raise or lower the signal
The source made the active and inactive calls. Rule for the calls: active = hit-call score of the fitted dose curve at least 0.9, where 1 is the maximum; inactive = score below 0.9.
Result category, one only: active, inactive

O=C(N[C@H](c1ccccc1)[C@@H]1CN2CCC1CC2)c1c(Cl)ccc(C(F)(F)F)c1Cl
active

Task item: # fetch the recorded call for COC(=O)Nc1nc2ccccc2[nH]1 here
Reply: inactive

Task item: # fetch the recorded call for OCCCl here
Reply: inactive

Task item: # fetch the recorded call for CCCCC(CC)COC(=O)c1ccc(C(=O)OCC(CC)CCCC)c(C(=O)OCC(CC)CCCC)c1 (stereo not given) here
Reply: inactive

Task item: # fetch the recorded call for CC(C)(C)C(O)(CCc1ccc(Cl)cc1)Cn1cncn1 (stereo not given) here
Reply: inactive

Task item: # fetch the recorded call for Clc1ccc(C(c2ccc(Cl)cc2)C(Cl)Cl)cc1 here
Reply: active

###

# experiment summary: ACEA_AR_agonist_AUC_viability: ACEA Biosciences xCELLigence Real-Time Cell Analysis on Androgen Receptor Agonism for Viability (AID 2283775)
Records with an inconclusive call do not appear. Activity calls are given as the source filed them. Rule for the calls: active = hit-call score of the fitted dose curve at least 0.9, where 1 is the maximum; inconclusive = response in the unintended direction; inactive = score below 0.9.
Result category, one only: yes (1) = active, no (0) = inactive

O=[N+]([O-])C(Br)(CO)CO
yes (1)
CCCCCCCCCCCCCN1CC(C)OC(C)C1 (configuration not stated)
no (0)
CCCCCOC(=O)c1ccccc1C(=O)OCCCCC
yes (1)

Task item: # fetch the recorded call for Cc1ccc(N)cc1 here
Reply: no (0)

Task item: # fetch the recorded call for O=C(Oc1ccc(Br)cc1)N1CCN2CCC1CC2 here
Reply: yes (1)

Task item: # fetch the recorded call for COc1cc(C=O)cc2c1[C@H](COC(N)=O)[C@]1(OC(C)=O)ON2C[C@H]2[C@@H]1N2C(C)=O here
Reply: yes (1)

Task item: # fetch the recorded call for N#CC(Br)(Br)C(N)=O here
Reply: no (0)

###

# Read-out: Cytochrome P450 (CYP24A1_1), CYP24A1 (gene 1591)
# experiment summary: LTEA_HepaRG_CYP24A1_1: Life Technologies and Expression Analysis (LTEA) Assay for Cytochrome P450 (CYP24A1_1) using HepaRG (AID 2283671)
# condition description: mRNA level, 48 h; actives raise or lower the signal
Calls of active or inactive are those of the source. How the source made its calls: active means hit-call score of the fitted dose curve at least 0.9, where 1 is the maximum; inactive means score below 0.9.
Result category, one only: active, inactive

Here's what some known entries look like.
Nc1ccc(Cl)cc1N
active
O=[N+]([O-])C(Br)(CO)CO
inactive
CO[C@@H]1[C@H](OC(=O)NC(=O)CCl)CC[C@]2(CO2)[C@H]1[C@@]1(C)O[C@@H]1CC=C(C)C
inactive
CN(C)C(=O)Nc1ccc(Cl)cc1
inactive
C1=Cc2cccc3cccc1c23
inactive

Task item: # fetch the recorded call for Cc1ccc([N+](=O)[O-])cc1 here
Reply: inactive
